Source: patent US20220372138A1

Measured pEC50, listed per entry.
Molecular target: T1, IgC2 domain of human IGSF11 fused to murine IgG2a Fc (human, UniProt Q5DX21 137-241)
T1 construct: not shown: murine IgG2a Fc-region
T1 sequence: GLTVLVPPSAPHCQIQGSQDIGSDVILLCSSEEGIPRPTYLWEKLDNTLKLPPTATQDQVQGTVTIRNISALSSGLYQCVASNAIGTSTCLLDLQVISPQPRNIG
Experiment: IgG ELISA
pEC50: −log10 of the molar value.

[[record]]
binder = "A-027 (IgG1 format) (antibody, V domains shown, human IgG1 format) VH: QVQLVQSGAEVKKPGSSVKVSCKASGGTFSSYAISWVRQAPGQGLEWMGGIIPIFGTANYAQKFQGRVTITADKSTSTAYMELSSLRSEDTAVYYCARARGSTWGYFDYWGQGTLVTVSS VL: EIVLTQSPASLSLSPGERVTLSCRASQSVSNYLAWYQQKPGQAPRLLIYDASNRATGIPARFSGSGSGTDFTLTISSLEPEDFAVYYCQQRDNWPLTFGGGTKVEIK"
reported_value = "7.70 to 9.00"

[[record]]
binder = "A-035 (IgG1 format) (antibody, V domains shown, human IgG1 format) VH: QVQLVQSGAEVKKPGASVKVSCKASGYTFTGYYMHWVRQAPGQGLEWMGWINPNSGNTGYAQKFQGRVTMTRNTSISTAYMELSSLRSEDTAVYYCARGRLERGYWYFDLWGRGTLVTVSS VL: NFMLTQPHSVSESPGRTVTISCTRSSGSITSNYVQWYQQRPGSAPTILIYEDKERPSEVPDRFSGSIDISSNSASLTISGLKTEDEADYYCQSYGGTSQGVLFGGGTKVTVL"
reported_value = "7.00 to 7.70"

[[record]]
binder = "A-022 (IgG1 format) (antibody, V domains shown, human IgG1 format) VH: EVQLLESGPGLVKPSQTLSLTCTVSGGSISSGGYYWSWIRQHPGKGLEWIGYIYYSGSTYYNPSLKSRVTISVDTSKNQFSLKLSSVTAADTAVYYCARASRSTDYYFDYWGQGTLVTVSS VL: QPGLTQPPSMSYGLGQTATLTCTGNRNNIGDQGAAWLQQHQGHPPKLLSYRNNNGPSGISERLSASRSGNTASLTISGLQPEDEADYYCSAWDSSLRAWVFGGGTKLTVL"
reported_value = "> 9.00"


Continue with the binder presented below.
Fill in the blank: the reported pEC50 of A-011 (IgG1 format) (antibody, V domains shown, human IgG1 format) VH: QVQLVESGGGVVQPGRSLRLSCAASGFTFSSYAMHWVRQAPGKGLEWVAVISYDGSNKYYADSVKGRFTISRDNSKNTLYLQMNSLRAEDTAVYYCAEGGALNYYGMDVWGQGTTVTVSS VL: SSELTQDPGVSVALGQTVRITCQGDSLRHFYATWYQQKPGQAPILVIYGKNNRPSGIPDRFSGSSSEDTASLTITGAQAEDEADYYCQSRDPRNNHLIFGGGTKLIVL is ____.
> 9.00
